molecular target: T1, Mota Fab; experiment: SPR (Biacore 2000); scaffold coupled to chip, Motavizumab as analyte
T1 construct: also called Motavizumab Fab; Fab portion of Motavizumab
MEASURED METRIC: kon (M⁻¹ s⁻¹)
Answer with a number only, understood to be in M⁻¹ s⁻¹.

Examples with their reported kon follow.
BINDER | UNIT NAME | kon
FFL_005 (designed binder) GSMSDIRKDLEERFDKLVEALKNKVDKMKAAFRKDQFHEERMKDWFKDLRKEVEQMRRAVRNYASEALSKINDLPITNDDKKLASNDVLKLVAEVWKKLEAILADVEAWFTQLEHHHHHH | M⁻¹ s⁻¹ | 2.97e+06
FFL_004 (designed binder, Purified on Ni++ resin; no tag is stated for this construct) GSMSDARKDLEERLDKLLEAAKNKMDKFKAAMRKRGQREERKKDWAKIVRDEFEQFRKAVRNFLSEALSKINDYPITNDDKKLTSNDTKKFAAEVEKKLEAFKADVEEAATQ | M⁻¹ s⁻¹ | 1.05e+06
FFL_007 (designed binder) GSLSDIRKDAERRFDKLVEAVKNKLDKMKAALRKEGQQEERMKDLMKFMRKEVEQLRKAMRNFLSEALSKINDMPITNDDKKLISNDLKKYDAIAEKKLEAMKADVERMATQGSWLEHHHHHH | M⁻¹ s⁻¹ | 1.45e+06
FFL_002 (designed binder, Purified on Ni++ resin; no tag is stated for this construct) GSLSDVRKDVEKRIDKALEAFKNKMDKEKAAFRKDPPSEERRKDKKKEFREEREQVRKAIRNVLSEALSKINDLPITNDKKKLVSNDVIKKVAEMKKKVELEVADVEKKVTQGSW | M⁻¹ s⁻¹ | 1.56e+06

stdin: Entry FFL_001 (designed binder, monomeric) GSRSDMRKDAERRFDKFVEAAKNKFDKFKAALRKGDIKEERRKDMKKLARKEAEQARRAVRNRLSELLSKINDMPITNDQKKLMSNDVLKFAAEAEKKIEALAADAEDKFTQGSW : reported kon = ?
stdout: 3.99e+06

The origin of these recorded values is patent US20150050306A1.
